- TARGET_OF_ASSAY: MPXV VP39 2′-O-RNA methyltransferase (Monkeypox virus, UniProt A0A7H0DN74)
- Sequence (A0A7H0DN74 whole entry, looked up): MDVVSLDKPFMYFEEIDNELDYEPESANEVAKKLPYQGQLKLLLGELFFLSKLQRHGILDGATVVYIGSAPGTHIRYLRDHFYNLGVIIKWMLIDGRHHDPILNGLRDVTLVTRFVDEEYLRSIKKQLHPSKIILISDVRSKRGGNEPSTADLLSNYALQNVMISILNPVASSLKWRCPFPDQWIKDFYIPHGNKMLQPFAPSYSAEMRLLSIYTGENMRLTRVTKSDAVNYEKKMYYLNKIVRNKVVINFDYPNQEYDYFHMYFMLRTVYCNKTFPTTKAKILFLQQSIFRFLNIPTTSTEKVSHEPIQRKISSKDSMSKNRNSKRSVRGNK
- METHOD: biochemical
- CONDITIONS_USED: IC50, fit of all data points
QUANTITY_MEASURED: pIC50
Here pIC50 is given on a logarithmic scale as minus log10 of the concentration in mol/L.

Given "Nc1ncnc2c1c(C#Cc1ccccc1)cn2[C@@H]1O[C@H](CSCC[C@H](N)C(=O)O)[C@@H](O)[C@H]1O" , state its recorded pIC50.
6.94

Given "Nc1ncnc2c1c(C#Cc1cccc3ccccc13)cn2[C@@H]1O[C@H](CSCC[C@H](N)C(=O)O)[C@@H](O)[C@H]1O" , state its recorded pIC50.
6.94

Given "Nc1ncnc2c1c(I)cn2[C@@H]1O[C@H](CSCC[C@H](N)C(=O)O)[C@@H](O)[C@H]1O" , state its recorded pIC50.
6.89

Given "Nc1ncnc2c1c(C#Cc1ccc3ccccc3c1)cn2[C@@H]1O[C@H](CSCC[C@H](N)C(=O)O)[C@@H](O)[C@H]1O" , state its recorded pIC50.
7.11

Given "Nc1ncnc2c1c(C#Cc1nc3ccccc3[nH]1)cn2[C@@H]1O[C@H](CSCC[C@H](N)C(=O)O)[C@@H](O)[C@H]1O" , state its recorded pIC50.
6.77

Given "CCc1cn([C@@H]2O[C@H](CSCC[C@H](N)C(=O)O)[C@@H](O)[C@H]2O)c2ncnc(N)c12" , state its recorded pIC50.
7.06

Given "C=Cc1cn([C@@H]2O[C@H](CSCC[C@H](N)C(=O)O)[C@@H](O)[C@H]2O)c2ncnc(N)c12" , state its recorded pIC50.
6.84

Given "Nc1ncnc2c1c(C#Cc1cnc3ccccc3c1)cn2[C@@H]1O[C@H](CSCC[C@H](N)C(=O)O)[C@@H](O)[C@H]1O" , state its recorded pIC50.
6.94

Given Nc1ncnc2c1ncn2[C@@H]1O[C@H](C[C@@H](N)CC[C@H](N)C(=O)O)[C@@H](O)[C@H]1O [sinefungin, reference compound] , state its recorded pIC50.
5.63

###

- TARGET_OF_ASSAY: MPXV VP39 2′-O-RNA methyltransferase (Monkeypox virus)
- METHOD: biochemical
Please respond with reported HillSlope, individual fit of data set 2 for every item in the list.
// print number alone

Given "Nc1ncnc2c1c(I)cn2[C@@H]1O[C@H](CSCC[C@H](N)C(=O)O)[C@@H](O)[C@H]1O" , state its recorded HillSlope, individual fit of data set 2.
-1.575

Given "Nc1ncnc2c1c(C#Cc1cnc3ccccc3c1)cn2[C@@H]1O[C@H](CSCC[C@H](N)C(=O)O)[C@@H](O)[C@H]1O" , state its recorded HillSlope, individual fit of data set 2.
-1.972

Given "Nc1ncnc2c1c(C#Cc1ccc3ccccc3c1)cn2[C@@H]1O[C@H](CSCC[C@H](N)C(=O)O)[C@@H](O)[C@H]1O" , state its recorded HillSlope, individual fit of data set 2.
-1.833

Given "C=Cc1cn([C@@H]2O[C@H](CSCC[C@H](N)C(=O)O)[C@@H](O)[C@H]2O)c2ncnc(N)c12" , state its recorded HillSlope, individual fit of data set 2.
-1.033

Given "CCc1cn([C@@H]2O[C@H](CSCC[C@H](N)C(=O)O)[C@@H](O)[C@H]2O)c2ncnc(N)c12" , state its recorded HillSlope, individual fit of data set 2.
-1.517

Given Nc1ncnc2c1ncn2[C@@H]1O[C@H](C[C@@H](N)CC[C@H](N)C(=O)O)[C@@H](O)[C@H]1O [sinefungin, reference compound] , state its recorded HillSlope, individual fit of data set 2.
-0.8657

Given "Nc1ncnc2c1c(C#Cc1ccccc1)cn2[C@@H]1O[C@H](CSCC[C@H](N)C(=O)O)[C@@H](O)[C@H]1O" , state its recorded HillSlope, individual fit of data set 2.
-1.605

Given "Nc1ncnc2c1c(C#Cc1nc3ccccc3[nH]1)cn2[C@@H]1O[C@H](CSCC[C@H](N)C(=O)O)[C@@H](O)[C@H]1O" , state its recorded HillSlope, individual fit of data set 2.
-1.353

Source listed as paper PMC10116469.
